Form field: EC50 (one value per entry).
- System tested: T1, human CD47-linker peptide-hIgG1Fc (human)
- T1 construct: also called Human CD47-hFc; human CD47-hFc
- Protocol: competition ELISA: CD47-hFc coated, antibody titrated against human SIRP-his (competitor), anti-His detection
Write down the numeric answer in nM and omit the unit.

The examples below pair each entry with its known result.
Binder | EC50 / nM
059-1.20.1 (antibody, mouse IgG1, V domains shown, also called 059-1.20.1 purified antibody) VH: EVQLQQSGPELVKPGASVNMSCKASGYTFTNYFLHWVKQKPGQGLEWIGYINPYNDGTNYNENFKGKATLTSDKSSSTAYMELSSLTSEDSAVYYCAKGGWFSMDYWGQGTSVTVSS VL: DVVMTQTPLSLPVSLGDQASISCRSSQSLVHSNGKTYLQWYLQKPGQSPKLLIYKVSNRFSGVPDRFSGSGSGTDFTLKISRVEAEDLGVYFCSQSTHVYTFGGGTKLEIK | 1190
059-1.30.1 (antibody, mouse IgG1, V domains shown, also called 059-1.30.1 purified antibody) VH: EVQLQQSGPELVKPGASVRMSCKASGYTFTNYVMHWVKQKPGQGLEWIGYINPYNDGTKYSEKFKGKATLTSDKSSITAYMELSSLTSEDSAVYYCAKGGLFTFDYWGQGTTLTVSS VL: DVVMTQTPLSLPVSLGDQASISCRSSQSLVHSKGNTYLHWYLQKPGQSPKLLIYRVSNRFSGVPDRFSGSGSGTDFTLKISRVEAEDLGVYFCSQSTHVPFTFGSGTKLEIK | 1030
059-1.11.1 (antibody, mouse IgM, V domains shown, Mouse hybridoma antibody; the subclass paragraph gives the light chain type as kappa; also called 059-1.11.1 purified antibody) VH: QVQLQQSGAELVRPGASVTLSCKASGYTFTDYEMHWVKQTPVHGLEWIGAIDPETGGTAYNQKFKGKATLTADKSSSTAYMELRSLTSEDSAVYYCTRGTPYAMDYWGQGTSVTVSS VL: DVVMTQTPLSLPVSLGDQASISCRSSQSLVHSNGNTYLHWYLQKPGQSPKLLIYKVSNRFSGVPERFSGSGSGTDFTLKISRVEAEDLGVYFCSQSTHVPWTFGGGTKLEIK | 2340

Kindly review the next binder as well.
Query (binder): 059-1.43.1 (antibody, mouse IgG1, V domains shown, also called 059-1.43.1 purified antibody) VH: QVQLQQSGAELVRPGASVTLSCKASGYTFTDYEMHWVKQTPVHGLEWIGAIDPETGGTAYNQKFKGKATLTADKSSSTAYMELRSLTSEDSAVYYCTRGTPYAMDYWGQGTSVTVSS VL: DVVMTQTPLSLPVSLGDQASISCRSSQSLVHSNGNTYLHWYLQKPGQSPKLLIYKVSNRFSGVPDRFSGSGSGTDFTLKISRVEAEDLGVYFCSQSTHVPWTFGGGTKLEIK ; field requested: EC50
850

All values here come from patent US20220089727A1.
